- Test protocol: gradient 5% acetonitrile 3 min, to 50% in 2 min, to 85% in 15 min, held 3 min, 100 µL/min
- Settings: column: Zorbax Extend-C18 2.1 x 50 mm; eluents: water / acetonitrile, 0.1% formic acid
Cut-off 700 s on RP-LC retention time, inclusive. At or above means 1; below means -1.

### Prompt Is RP-LC retention time for CC1(C(=O)NC2CCCCCCC2)CN(S(C)(=O)=O)CC(=O)N1Cc1ccc(Cl)cc1 (stereo not given) at or above 700 s?
### Response 1

### Prompt Is RP-LC retention time for COc1ccc(OC)c(Nc2nc(NCC3CCCO3)nc(N)c2[N+](=O)[O-])c1 (stereo not given) at or above 700 s?
### Response 1

### Prompt Is RP-LC retention time for CCNC(=O)C1CCc2sc(C(=O)N(CC)CC)cc2C1 (stereo not given) at or above 700 s?
### Response -1

* * *

- Test protocol: gradient 5% acetonitrile 3 min, to 50% in 2 min, to 85% in 15 min, held 3 min, 100 µL/min
- Settings: column: Zorbax Extend-C18 2.1 x 50 mm; eluents: water / acetonitrile, 0.1% formic acid
Quantity: RP-LC retention time (s)
Enter your answer as a number in s; do not include the unit.

### Prompt # input molecule: COc1ccc(-c2c(C)noc2NC(C)=O)cc1S(=O)(=O)Nc1cc(OC)c(OC)c(OC)c1 ; wanted: its RP-LC retention time
### Response 687

### Prompt # input molecule: Cc1ccc(-n2cc(C(=O)N3CCSCC3)nn2)cc1C ; wanted: its RP-LC retention time
### Response 852

### Prompt # input molecule: CCSc1nc2ncc(-c3ccnc(N4CCN(C)CC4)n3)c(C)n2n1 ; wanted: its RP-LC retention time
### Response 808

### Prompt # input molecule: CN(CC1CCOC1)C(=O)c1ccc(F)cc1F (centres undefined) ; wanted: its RP-LC retention time
### Response 683

* * *

- Test protocol: gradient 5% acetonitrile 3 min, to 50% in 2 min, to 85% in 15 min, held 3 min, 100 µL/min
- Settings: column: Zorbax Extend-C18 2.1 x 50 mm; eluents: water / acetonitrile, 0.1% formic acid
Cut-off 700 s on RP-LC retention time, inclusive. At or above means y; below means n.

### Prompt Is RP-LC retention time for CCOc1ccc(S(=O)(=O)N2CCC(c3noc(-c4cccc(OC)c4)n3)CC2)cc1 at or above 700 s?
### Response y

### Prompt Is RP-LC retention time for CCn1ccc2c(cc(C(=O)NCc3ccc4c(c3)OCO4)n2C)c1=O at or above 700 s?
### Response n

### Prompt Is RP-LC retention time for CCCn1cc(CCNC(=O)Nc2cc(Cl)ccc2C)c2cccnc21 at or above 700 s?
### Response y

### Prompt Is RP-LC retention time for O=C(C1CCC1)N1CCC(c2noc(-c3cnccn3)n2)C1 (configuration not stated) at or above 700 s?
### Response n

### Prompt Is RP-LC retention time for O=C1CN(S(=O)(=O)c2ccccc2C(F)(F)F)CC2(CCCCC2)N1C1CCCC1 at or above 700 s?
### Response y

### Prompt Is RP-LC retention time for Cc1ccc(CNC(=O)N2CC(Oc3ccc(-c4nc(C)no4)cc3)C2)cc1 at or above 700 s?
### Response y
